Source of measurements: patent US20260070917A1

# subject.of.test: CDK2 (Homo sapiens)
# Construct: host or cells: HEK293-CDK2-Hibit
# method.summary: HiBit Assay Protocol for CDK2 (HIBIT protein quantification, degradation)
# Assay type: cell-based
# conditions: HEK293-CDK2-Hibit cells, compound treatment for 6 hours
measured.metric: CDK2 HIBIT Protein Quantification Maximum (%)

[P] C[C@@H](c1cccc(S(=O)(=O)N2CC[C@H](Nc3ncc4c(n3)N([C@@H]3CCC[C@@H](O)C3)C(=O)C43CC3)[C@H](F)C2)c1)N1CCN(c2ccc3c(N4CCC(=O)NC4=O)nn(C)c3c2)CC1
[Q] CC1CCCC1N1C(=O)C2(CC2)c2cnc(NC3CCN(S(=O)(=O)N4CC5C4CCN5C(=O)CCCCc4ccc5c(c4)n(C)c(=O)n5C4CCC(=O)NC4=O)CC3)nc21 (stereo not drawn)
Return label of the item with the larger CDK2 HIBIT Protein Quantification Maximum. Candidates: P , Q . Kindly state the label of the option you pick.
P

[A] CC1CCCC1N1C(=O)C2(CC2)c2cnc(NC3CCN(S(=O)(=O)N4CCN(C(=O)CCCCCCCc5cccc6c5n(C)c(=O)n6C5CCC(=O)NC5=O)CC4)CC3)nc21 (stereo not drawn)
[B] CC1CCCC1N1C(=O)C2(CC2)c2cnc(NC3CCN(S(=O)(=O)N4CC5CN(C(=O)CCCCc6ccc7c(c6)n(C)c(=O)n7C6CCC(=O)NC6=O)CC54)CC3)nc21 (stereo not drawn)
For the pair A and B , which member has the lower CDK2 HIBIT Protein Quantification Maximum number? Kindly state the label of the option you pick.
B

----------
# subject.of.test: CDK2 (Homo sapiens, UniProt P24941)
# Construct: host or cells: HEK293-CDK2-Hibit
# method.summary: HiBit Assay Protocol for CDK2 (HIBIT protein quantification, degradation)
# Type: cell-based
# conditions: HEK293-CDK2-Hibit cells, compound treatment for 6 hours
measured.metric: CDK2 HIBIT Protein Quantification Maximum (%)

These recorded examples may help you get a feel for the data.
compound | unit.of.measurement | result.value
Cn1nc(N2CCC(=O)NC2=O)c2ccc(C3CCN(CC4CCCN(S(=O)(=O)N5CCC(Nc6ncc7c(n6)N([C@@H]6CCC[C@@H](O)C6)C(=O)C76CC6)CC5)C4)CC3)cc21 (some centres unmarked) | % | 62
Cn1nc(N2CCC(=O)NC2=O)c2ccc(N3CCN(Cc4cccc(S(=O)(=O)N5CCC(Nc6ncc7c(n6)N([C@@H]6CCC[C@@H](O)C6)C(=O)C76CC6)CC5)c4)CC3)cc21 | % | 90
CC1CCCC1N1C(=O)C2(CC2)c2cnc(NC3CCN(S(=O)(=O)N4CC5(CCCN(C(=O)CCc6cccc7c6n(C)c(=O)n7C6CCC(=O)NC6=O)C5)C4)CC3)nc21 (centres unmarked) | % | 63

[A] CC1CCCC1N1C(=O)C2(CC2)c2cnc(NC3CCN(S(=O)(=O)N4CC5(CCCCN5C(=O)CCCc5ccc6c(c5)n(C)c(=O)n6C5CCC(=O)NC5=O)C4)CC3)nc21 (centres unmarked)
[B] CC1CCCC1N1C(=O)C2(CC2)c2cnc(NC3CCN(S(=O)(=O)N4CC5(CCCN(C(=O)CCCCCc6cccc7c6n(C)c(=O)n7C6CCC(=O)NC6=O)C5)C4)CC3)nc21 (centres unmarked)
For the pair A and B , which member has the lower CDK2 HIBIT Protein Quantification Maximum number? Kindly state the label of the option you pick.
A
